Where do the numbers come from? From the supplement of paper PMC12282887.

// promoter activity interaction Z-score lookup, one value per entry
# System: E. coli BW25113 acrABp lux reporter
# Protocol Details: promoter activity interaction Z-score (Lux/OD deviation from empty-vector control); higher = stronger promoter induction by the compound
# Conditions: 0.13 µg/ml; genetic background: ΔmarA
Observable: promoter activity interaction Z-score

>>> print(df.to_string())
                                   molecule                             observable  quantitative_result
0  CCN1CCN(C(=O)N[C@@H](C(=O)N[C@@H]2C(=O)N3[C@@H]2SC(C)(C)[C@@H]3C(=O)O)c2ccccc2)C(=O)C1=O  promoter activity interaction Z-score                0.866
1  CNC(C)C1CCC(N)C(OC2C(N)CC(N)C(OC3OCC(C)(O)C(NC)C3O)C2O)O1 (centres undefined)  promoter activity interaction Z-score                0.731
2  C[C@H]1c2cccc(O)c2C(=O)C2=C(O)[C@]3(O)C(=O)C(C(N)=O)=C(O)[C@@H](N(C)C)[C@@H]3[C@@H](O)[C@@H]21  promoter activity interaction Z-score               0.0555
3  N=C(NCCCCCCNC(=N)NC(=N)Nc1ccc(Cl)cc1)NC(=N)Nc1ccc(Cl)cc1  promoter activity interaction Z-score               -0.312
